Assay: Half life in rat at 2 mg/kg, iv and 30 mg/kg, po
Format: ADME, organism-based
Details: in vivo
readout.type: half-life

Give a short answer stating reported half-life for CSC(=S)N1CC2(CCCCC2)CS/C1=N\c1cccc2ccccc12 .
1.5 h

Give a short answer stating reported half-life for CSC(=S)N1CC2(CCCCC2)CS/C1=N\c1ccc(OC(F)(F)F)cc1 .
2.4 h

Give a short answer stating reported half-life for CSC(=S)N1CC2(CCCCC2)CS/C1=N\c1ccccc1C(C)C .
2.5 h

Give a short answer stating reported half-life for CSC(=S)N1CC2(CCCCC2)CS/C1=N\c1cccc2c1CCCC2 .
4.1 h

###

System: Mus musculus
Assay: Analgesic activity against formalin-induced acute pain in iv dosed mouse
Type: functional
readout.type: ED50 (mg/kg)
Provide only the numeric value, understood in mg/kg.

State measured ED50 of the molecule CSC(=S)N1CC2(CCCCC2)CS/C1=N\c1cccc2c1CCCC2 with Mus musculus.
0.3

State measured ED50 of the molecule CSC(=S)N1CC2(CCCCC2)CS/C1=N\c1cccc2ccccc12 with Mus musculus.
0.4

State measured ED50 of the molecule CCCCCc1cc(O)c2c(c1)OC(C)(C)[C@@H]1CCC(C)=C[C@@H]21 [DRONABINOL] with Mus musculus.
0.4

State measured ED50 of the molecule CSC(=S)N1CC2(CCCCC2)CS/C1=N\c1ccccc1C(C)C with Mus musculus.
1.2

State measured ED50 of the molecule CN1CC[C@]23c4c5ccc(O)c4O[C@H]2[C@@H](O)C=C[C@H]3[C@H]1C5 [MORPHINE] with Mus musculus.
1.1

###

readout.type: Ki

State measured Ki of the compound CSC(=S)N1CC2(CCCCC2)CS/C1=N\c1cccc(C(C)C)c1 with Cannabinoid receptor 2 (Homo sapiens, UniProt P34972).
Sequence (P34972 whole entry): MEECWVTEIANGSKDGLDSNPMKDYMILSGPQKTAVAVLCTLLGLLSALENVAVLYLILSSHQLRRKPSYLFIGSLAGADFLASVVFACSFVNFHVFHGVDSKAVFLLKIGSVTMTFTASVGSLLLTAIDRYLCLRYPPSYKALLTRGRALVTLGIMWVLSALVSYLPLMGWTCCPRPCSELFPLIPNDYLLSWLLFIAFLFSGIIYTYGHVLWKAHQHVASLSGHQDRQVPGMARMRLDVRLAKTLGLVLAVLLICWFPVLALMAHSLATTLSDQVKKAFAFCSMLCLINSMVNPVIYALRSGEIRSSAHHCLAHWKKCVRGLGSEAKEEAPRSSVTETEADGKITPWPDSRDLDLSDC
2.5 nM

State measured Ki of the compound CSC(=S)N1CC2(CCCCC2)CS/C1=N\c1ccc(C(F)(F)F)cc1 with Cannabinoid receptor 2 (Homo sapiens, UniProt P34972).
18 nM

State measured Ki of the compound CCOc1ccccc1/N=C1\SCC2(CCCCC2)CN1C(=S)SC with Cannabinoid receptor 2 (Homo sapiens, UniProt P34972).
6.3 nM

State measured Ki of the compound CSC(=S)N1CC2(CCCCC2)CS/C1=N\c1cccc2nsnc12 with Cannabinoid receptor 2 (Homo sapiens, UniProt P34972).
1.3 nM

State measured Ki of the compound CSC(=S)N1CC2(CCCCC2)CS/C1=N\c1cccc2nonc12 with Cannabinoid receptor 2 (Homo sapiens, UniProt P34972).
0.9 nM

State measured Ki of the compound CSC(=S)N1CC2(CCCCC2)CS/C1=N\c1ccccc1C(F)(F)F with Cannabinoid receptor 2 (Homo sapiens, UniProt P34972).
1.1 nM

State measured Ki of the compound CSC(=S)N1CC2(CCCCC2)CS/C1=N\c1ccc2c(c1)CCCC2 with Cannabinoid receptor 2 (Homo sapiens, UniProt P34972).
24 nM

State measured Ki of the compound CSC(=S)N1CC2(CCCCC2)CS/C1=N\c1cccc(C)c1C with Cannabinoid receptor 2 (Homo sapiens, UniProt P34972).
1 nM

State measured Ki of the compound CSC(=S)N1CC2(CCCCC2)CS/C1=N\c1cccc2c1CCCN2C with Cannabinoid receptor 2 (Homo sapiens, UniProt P34972).
1.1 nM

State measured Ki of the compound CSC(=S)N1CC2(CCCCC2)CS/C1=N\c1ccccc1C(C)C with Cannabinoid receptor 2 (Homo sapiens, UniProt P34972).
0.8 nM

State measured Ki of the compound CSC(=S)N1CC2(CCCCC2)CS/C1=N\c1ccccc1OC(F)(F)F with Cannabinoid receptor 2 (Homo sapiens, UniProt P34972).
12 nM
